Where these numbers come from: patent US20240238425A1

Tested on: HiBiT-HSD17β13 fusion protein (N-terminal HiBiT-tagged HSD17β13 isoform D) in Huh7 HiBiT-HSD17β13 OE cells
Experiment: Whole-cell Huh7-HSD17B13 HiBiT assay (degrader potency and maximal efficacy, luminescence readout)
Assay type: cell-based, human
Settings: 24 hour incubation, max. concentration 1 μM, geometric mean, * = geometric mean for all forms tested (parent and salt forms)
Where a name gives a salt, the structure may show the parent alone.
Below is a list of entries, each paired with its recorded Huh7_HIBIT-HSD17β13_DC50 GMean Asymptote Maximum value.
The reply should contain only the number, in %.

// below: answered compounds
>  <compound>
Cc1ccc(C(=O)N2CCC3(CC2)C[C@H](N2CCN(c4ncc(-c5ccc6cn([C@H]7CC[C@H](CNC(=O)c8cc(F)c(O)c(F)c8F)CC7)nc6c5)cn4)CC2)CO3)cc1N1CCC(=O)NC1=O [Example 73, trifluoroacetate salt]

>  <result>
76

$$$$
>  <compound>
Cc1ccc(C(=O)N2CCC3(CCC(N4CCN(c5ccc6cn([C@H]7CC[C@H](CNC(=O)c8cc(F)c(O)c(F)c8)CC7)nc6c5)CC4)CC3)CC2)cc1N1CCC(=O)NC1=O

>  <result>
81

$$$$
>  <compound>
O=C1CCN(c2cnc3cc(CN4CCN(c5ncc(-c6ccc7cn([C@H]8CC[C@H](CNC(=O)c9cc(F)c(O)c(F)c9F)CC8)nc7c6)cn5)CC4)ccn23)C(=O)N1 [Example 50, trifluoroacetate salt]

>  <result>
85

$$$$
>  <compound>
Cl.Cn1c(=O)n(C2CCC(=O)NC2=O)c2ccc(CCCN3CCN(c4ccc5cn([C@H]6CC[C@H](CNC(=O)c7cc(F)c(O)c(F)c7F)CC6)nc5c4)CC3)cc21 (mixture of isomers)

>  <result>
86

$$$$
>  <compound>
Cn1c(=O)n(C2CCC(=O)NC2=O)c2ccc(CCCN3C[C@@H]4CN(c5ccc6cn([C@H]7CC[C@H](CNC(=O)c8cc(F)c(O)c(F)c8F)CC7)nc6c5)C[C@@H]4C3)cc21 (mixture of isomers)

>  <result>
73

$$$$
>  <compound>
Cn1c(=O)n(C2CCC(=O)NC2=O)c2ccc(CC3CCN(c4ncc(-c5ccc6cn([C@H]7CC[C@H](CNC(=O)c8cc(F)c(O)c(F)c8F)CC7)nc6c5)cn4)CC3)cc21 (mixture of isomers) [Example 46, trifluoroacetate salt]

>  <result>
84

$$$$

Please find the next compound below.
Inquiry: Which Huh7_HIBIT-HSD17β13_DC50 GMean Asymptote Maximum is listed for Cn1c(=O)n(C2CCC(=O)NC2=O)c2ccc(CCCN3Cc4cnc(-c5ccc6cn([C@H]7CC[C@H](CNC(=O)c8cc(F)c(O)c(F)c8F)CC7)nc6c5)nc4C3)cc21 (mixture of isomers) ?
Reply text: 78
